Tested on: RXF 393 renal
ASSAY_COMMENT: NCI-60 one-dose screen, 48 h
APPLIED_CONDITIONS: 10 µM unless noted
Compounds without any hit were thinned out: in the full panel of roughly 83,000, 20% have a hit. The source made the active and inactive calls. Rule for the calls: active = growth percent below 10; inactive = the rest.
Assign a class; possible classes are 1 (active), -1 (inactive)

N#CC1=C(c2ccc(Cl)cc2)Nc2c(c(-c3ccc(Cl)cc3)nn2-c2ccccc2)C12C(=O)Nc1ccc(Cl)cc12 (stereo not given) : -1
O=C(N/N=C/c1ccc(F)cc1)c1ccc(C(F)(F)F)nc1Nc1cccc(C(F)(F)F)c1 : 1
COc1cc2c(c(OC)c1OC)CCC(c1cccc(C(=O)Nc3cccc(Br)c3)c1)O2 (stereo not given) : -1
O=Nc1c(-c2c(O)[nH]c3ncccc23)[nH]c2ccccc12 : -1
CCCCC[C@@H]1Cc2cc(O)c(C(=O)O)c3c2[C@H](C[C@]2(OC[C@@H](CC(=O)[C@@](C)(CC)C(=O)OC)[C@@H]2C)O3)O1 : -1

Query :: Test call for this molecule, please: `CC(C)N1CCN(Cc2ccc3c(NNC(=O)c4ccccc4)nc4cc(F)ccc4n23)CC1`
Result :: -1

Query :: Dear colleague, could you share the recorded outcome for `O=C(CSc1nc2ccc([N+](=O)[O-])cc2[nH]1)Nc1cccc(C(F)(F)F)c1` when you have a moment?
Result :: -1

Query :: Fill in: this test's call for `Nc1nc2c([nH]1)c1[nH]c3ccccc3c1c1[nH]c3ccccc3c21` is ___
Result :: 1

Query :: Write down the call the test reported for this molecule. Item: `COC(=O)/C(CCC=C(C)C)=C1\[C@@H](OC(C)=O)C[C@@]2(C)[C@H]1C[C@@H](O)[C@H]1[C@@]3(C)CC[C@H](NCCN)[C@@H](C)[C@@H]3CC[C@@]12C`
Result :: -1

Query :: Check the results log: what was the call for `Clc1ccc(Nc2nnc(COc3ccccc3)c3ccccc23)cc1` ?
Result :: 1

Query :: How did this test come out for `CC(=O)OC[C@]12CCC(C)(C)C[C@H]1[C@@]1(O)[C@H](O)C[C@@H]3[C@@]4(C)CCCNC(C)(C)[C@@H]4CC[C@@]3(C)[C@]1(C)CC2` ?
Result :: -1

Query :: Could you please tell me the result logged for `CCOC(=O)c1c(C)nc2c(c1N)CC(=O)N2Cc1cc(F)cc(Cl)c1` in this assay?
Result :: -1

Query :: Recorded test call requested for `CN(C)CCNc1nc2c3cc(Cl)ccc3nn2c2ccccc12`
Result :: 1

Query :: Recorded call for `COC1=CC(c2ccc[nH]2)=N/C1=C\c1[nH]c(C)c(C(=O)OCc2ccccc2)c1C` ?
Result :: 1

Query :: Status in this test for `C=C1C(=O)O[C@H]2[C@H]1CC/C(COC(=O)CCSCCC(=O)OC/C1=C/CC[C@@]3(C)O[C@H]3[C@H]3OC(=O)C(=C)[C@@H]3CC1)=C\CC[C@@]1(C)O[C@@H]21` ?
Result :: 1

Query :: Would you mind telling me which call this test gave `O=c1c2cc(-c3ccccc3)sc2nc2sc(-c3ccccc3)nn12` ?
Result :: -1

Query :: Record lookup: outcome of this test for `Cn1c(=O)c2c(nc(NC3=NS(=O)(=O)c4ccccc43)n2CC(=O)N2CCc3ccccc32)n(C)c1=O` ?
Result :: -1

* * *

Tested on: RPMI-8226 leukemia
ASSAY_COMMENT: NCI-60 one-dose screen, 48 h (100 = growth as untreated, 0 = no growth, -100 = all killed)
APPLIED_CONDITIONS: 10 µM unless noted
Compounds without any hit were thinned out: in the full panel of roughly 83,000, 20% have a hit. The source made the active and inactive calls. The calls were made as follows: active = growth percent below 10; inactive = the rest.
QUANTITY_KIND: growth

Example cases with answers are listed next.
O=C(/C=C(/C=C/c1cccc2[nH]ccc12)OB(F)F)/C=C/c1cccc2[nH]ccc12 : -31.5% (active)
COc1ccc(C(=O)C2C(c3ccc(OC)cc3)CN(C)C23C(=O)Nc2ccccc23)cc1 (stereo not drawn) : 88.6% (inactive)
CN1CCN(Cc2ccc(NC(=O)c3cncc(C#Cc4cnc(N)c5ccccc45)c3)cc2C(F)(F)F)CC1 : -42.8% (active)
COc1ccc(-c2nc3c(c(-c4ccccc4)nn3-c3ccccc3)c(-c3ccc(N4CCOCC4)cc3)c2C#N)cc1 : 89.8% (inactive)
COc1ccc(-c2cn(-c3cc(OC)c(OC)c(OC)c3)c(=O)n2C(C)=O)cc1 : 95.9% (inactive)

Answer for every listed entry: what is its growth? The entries follow.
1. COc1ccccc1NC(=O)Cn1cc(CN2CCN(c3ccnc4cc(Cl)ccc34)CC2)nn1
2. CCOC(=O)c1ccc2[nH]c(O)c(C(=Nc3ccc(N(C)C(=O)CN4CCN(C)CC4)cc3)c3ccccc3)c2c1
3. CN([O-])c1nc(N(C)[O-])nc(N2CCOCC2)n1.CN([O-])c1nc(N(C)[OH2+])nc(N2CCOCC2)n1.[Fe+3]

Result ::
50.9% (inactive)
-28.2% (active)
81% [100 µM] (inactive)

* * *

Test system: HCC-2998 colon
ASSAY_COMMENT: NCI-60 one-dose screen, 48 h (100 = growth as untreated, 0 = no growth, -100 = all killed)
APPLIED_CONDITIONS: 10 µM unless noted
About 83,000 compounds went through this panel and 20% of them were active in at least one assay; those are over-represented in the sample as a whole.
QUANTITY_KIND: growth (%)
Numbers only, in %.

Example compounds with recorded growth:
O=C(OCc1ccc2cccc(O)c2n1)N1CCN(C(=O)c2cc3cc(F)ccc3[nH]2)CC1 : -4.94
N#Cc1c(-c2ccc(Cl)cc2)nc(SCC(=O)NC2=NN=C(c3ccccc3)CS2)[nH]c1=O : 89.6
Oc1c(Cl)cc(Cl)c2ccc(Cn3cc(-c4ccc(C(F)(F)F)cc4)nn3)nc12 : 105
COC(=O)c1cc(-c2ccc(OC)cc2)[nH]c1N/N=C/c1c(Cl)cccc1Cl : 67.4
Cc1ccc(Sc2oc(-c3ccc(C)cc3)nc2[P+](c2ccccc2)(c2ccccc2)c2ccccc2)cc1 : 1.79

// for each compound below, give its growth
1. CC(C)=NNc1ccccn1
2. CCOC(=O)c1cnc2ccccc2c1Cl
3. O=C(c1ccc(Cl)cc1)N1CCN(c2ccnc3cc(Cl)ccc23)CC1
4. Fc1ccc(-c2nn(-c3ccccc3)cc2-c2nc3ccccc3o2)cc1
5. CCOC(=O)C1=C(NC)OCC1=O
6. CCOC(=O)c1cc2c(=O)oc3ccccc3c2oc1=O

Result ::
1. 48.1
2. 98.4
3. 108
4. 101
5. 102
6. 102

* * *

Test system: CAKI-1 renal
ASSAY_COMMENT: NCI-60 one-dose screen, 48 h (100 = growth as untreated, 0 = no growth, -100 = all killed)
APPLIED_CONDITIONS: 10 µM unless noted
About 83,000 compounds went through this panel and 20% of them were active in at least one assay; those are over-represented in the sample as a whole.
Classify by measured growth: class 1 if it is equal to or exceeds 70%, class 0 if it is smaller.

// known answers, use as guide
Nc1c(C(=O)Nc2ccncc2)sc2nc3c(cc12)CCCCCC3 : class 1
Cc1ccc(-c2nc(N3CCNCC3)c3oc(-c4ccccc4)nc3n2)cc1 : class 0
COc1ccc(-c2nnc(-c3ccc4c(c3)nc(-c3ccncc3)n4C3CCCCC3)o2)cc1 : class 1
CCCCC[C@@H]1Cc2cc(O)c(C(=O)O)c3c2[C@H](C[C@]2(OC[C@@H](CC(=O)[C@@](C)(CC)C(=O)OC)[C@@H]2C)O3)O1 : class 1

Query :: # bool: growth of `CNC(=O)c1c(NC(=O)c2ccc(C(F)(F)F)cc2)sc2c1CCC(=O)C2` >= 70%
Result :: class 0

Query :: Tell me whether growth is at least 70% here: `COc1cc(CNS(=O)(=O)c2ccc(C)cc2)ccc1OCc1cn(-c2ccc(F)cc2)nn1`
Result :: class 1

Query :: Hello, I need to know if `O=C1/C(=C/c2ccc(F)cc2)COc2ccc(O)cc21` has measured growth not below 70%. Thanks!
Result :: class 1

* * *

System: OVCAR-4 ovarian
ASSAY_COMMENT: NCI-60 one-dose screen, 48 h
APPLIED_CONDITIONS: 10 µM unless noted
This is part of a sample that, as a whole, favours compounds with a hit. Of some 83,000 tested, about 20% had one in any assay. Active and inactive are the calls of the source. How the source made its calls: active means growth percent below 10; inactive means the rest.
Classes to choose from: class 1 for active, class 0 for inactive

Consider the following illustrative entries.
CCN(CC)CCOc1ccc(-c2c(-c3ccccc3)c(=O)oc3ccccc23)cc1 : class 0
Oc1ccc(CN2CCC(N3CCCCC3)CC2)c2cccnc12 : class 0
COc1ccc(-c2cc(-c3ccc(Cl)cc3)c(C#N)c(=O)n2CCCCC(=O)Nc2ccccc2N)cc1 : class 0
C[C@]12CC[C@@H]3c4ccc(O)c([N+](=O)[O-])c4CC[C@H]3[C@@H]1CCC2=O : class 0
N#Cc1nc(-c2ccccc2)oc1S(=O)(=O)N1CCOCC1 : class 0

Query :: Hi, do you know how `CCOc1ccc(NC(=O)CSc2oc(-c3ccccc3)nc2S(=O)(=O)c2ccc(F)cc2)cc1` came out in this test?
Result :: class 0

Query :: Give the logged outcome of this assay for the following compound: `COc1cc(/C=C/C(=O)c2cccc(Nc3nc(Nc4ccccc4)nc(Nc4ccccc4)n3)c2)cc(OC)c1OC`
Result :: class 0

Query :: Please let me know the test result on file for `COc1cc(CNS(=O)(=O)c2ccc(C)cc2)ccc1OCc1cn(-c2ccc(F)cc2)nn1` .
Result :: class 0

Query :: Recorded call for `C#Cc1ccc(NC(=O)c2ccc(/C=C/C(=O)c3nccn3C)cc2)cc1` ?
Result :: class 1

Source: PubChem BioAssay (NCI)
